Biological target: T1, AFP158/HLA-A*02:01 complex (human)
T1 construct: biotinylated on the BSP by BirA for ELISA and panning; also called biotinylated AFP158/HLA-A*02:01 complex; Bio-AFP158
Assay: SPR, scFv-mIgG2aFc from supernatant captured, complex as analyte
Item-by-item account of Kd

BINDER	UNIT SPEC	Kd
AS170036 VL1VH1 scFv-mIgG2aFc (Fc fusion, not shown: a dimerising Fc or GST, Humanized) QSALTQPRSVSGSPGQSVTISCAGTSSDVGSENYVSWYQQHPGKAPKLMIYQVNKRASGVPDRFSGSKSGNTASLTISGLQAEDEADYYCASYRSSDHNIVFGGGTKLTVLGGGGSGGGGSGGGGSEVQLVESGGGLVQPGGSLRLSCAASGFTFSSYAMSWVRQAPGKGLEWVSTINSGTGSPYYADSVKGRFTISRDNSKNTLYLQMNSLRAEDTAVYYCAKNFFDGSWFLGPPAMDYWGQGTLVTVSS	nM	360
AS170036 VL2VH1 scFv-mIgG2aFc (Fc fusion, not shown: a dimerising Fc or GST) scFv: QSALTQPRSVSGSPGQSVTISCAGTSSDVGSENYVSWYQQHPGKAPKLLIYQVNKRASGIPDRFSGSKSGNTASLTISGLQAEDEADYYCASYRSSDHNIVFGGGTKLTVLGGGGSGGGGSGGGGSEVQLVESGGGLVQPGGSLRLSCAASGFTFSSYAMSWVRQAPGKGLEWVSTINSGTGSPYYADSVKGRFTISRDNSKNTLYLQMNSLRAEDTAVYYCAKNFFDGSWFLGPPAMDYWGQGTLVTVSS	nM	340

meta.source: patent US20240279318A1
